# recorded conditions: in toluene, 303.15 K
parameter: solubility (mole fraction)

Looking up CC(=CC(C)=Nc1c(C)cc(C)cc1C)Nc1c(C)cc(C)cc1C , I see its solubility (mole fraction) listed as 0.372

====

# recorded conditions: in ethanol, 293.15 K
parameter: solubility (mole fraction)
Answer with a bare number; do not write a unit.

Measured solubility (mole fraction), CC(=CC(C)=Nc1c(C)cc(C)cc1C)Nc1c(C)cc(C)cc1C : 0.00561

====

# recorded conditions: in ethanol, 298.15 K
parameter: solubility (mole fraction)
Write no unit; give the number alone.

Field solubility (mole fraction) (entry CC(=CC(C)=Nc1c(C)cc(C)cc1C)Nc1c(C)cc(C)cc1C ) reads 0.00678

Cited source: BigSolDB 2.1
